Test: refractive index (Na D-line) (dimensionless)
Settings: 353.15 K; 101.33 kPa; Liquid; Standard Abbe refractometry
± gives the expanded uncertainty stated by the source.
refractive index values by entry

Some compounds with known refractive index results, for comparison:
1) CC(=O)[O-].CCCCn1cc[n+](C)c1 [1-butyl-3-methylimidazolium acetate] = 1.4718 ± 0.00053
2) CC(=O)O.CCN(C)C [N,N-dimethylethanamine acetate] = 1.39963 ± 0.00057
3) CC(=O)[O-].CCCC[N+]1(C)CCCC1 [1-butyl-1-methylpyrrolidinium acetate] = 1.45479 ± 0.00077
4) CC(=O)[O-].CCn1cc[n+](C)c1 [1-ethyl-3-methylimidazolium acetate] = 1.48476 ± 0.00077

Consider the record given below.
Ask: Which value of refractive index has been reported for CC(=O)[O-].CCn1cc[nH+]c1 [1-ethyl-1H-imidazolium acetate] in the records?
Result: 1.43607 ± 0.00082
